Molecular target: GABAA (α3β2γ2) subtype (Homo sapiens, UniProt P18507+P34903)
Construct: expressed in transfected cells
Sequence (P34903 29-492): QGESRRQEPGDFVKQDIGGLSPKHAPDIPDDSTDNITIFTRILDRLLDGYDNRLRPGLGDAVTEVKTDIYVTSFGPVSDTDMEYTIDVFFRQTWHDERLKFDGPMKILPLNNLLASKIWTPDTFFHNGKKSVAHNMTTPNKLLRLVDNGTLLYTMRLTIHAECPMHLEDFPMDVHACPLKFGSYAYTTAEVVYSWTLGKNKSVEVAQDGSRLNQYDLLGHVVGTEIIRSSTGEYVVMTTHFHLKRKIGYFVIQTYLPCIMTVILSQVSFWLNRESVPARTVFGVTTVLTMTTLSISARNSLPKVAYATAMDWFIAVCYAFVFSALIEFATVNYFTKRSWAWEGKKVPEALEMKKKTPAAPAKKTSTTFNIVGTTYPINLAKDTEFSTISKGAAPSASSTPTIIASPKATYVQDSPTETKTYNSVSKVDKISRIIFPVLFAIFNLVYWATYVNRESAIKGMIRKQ
Sequence (P47870 25-512 partner limits assumed): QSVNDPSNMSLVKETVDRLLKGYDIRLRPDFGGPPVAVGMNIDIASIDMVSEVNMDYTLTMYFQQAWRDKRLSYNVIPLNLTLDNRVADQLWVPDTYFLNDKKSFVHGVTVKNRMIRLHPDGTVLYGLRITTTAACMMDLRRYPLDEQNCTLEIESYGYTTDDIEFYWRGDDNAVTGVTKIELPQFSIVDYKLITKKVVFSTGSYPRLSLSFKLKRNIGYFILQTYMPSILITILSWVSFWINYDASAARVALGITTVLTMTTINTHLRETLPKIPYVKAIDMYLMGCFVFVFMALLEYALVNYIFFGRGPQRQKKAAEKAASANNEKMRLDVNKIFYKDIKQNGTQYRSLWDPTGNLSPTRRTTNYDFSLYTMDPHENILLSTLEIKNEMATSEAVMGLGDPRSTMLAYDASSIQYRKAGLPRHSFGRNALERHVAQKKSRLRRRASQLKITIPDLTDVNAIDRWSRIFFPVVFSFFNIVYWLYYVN
Sequence (P18507 40-475): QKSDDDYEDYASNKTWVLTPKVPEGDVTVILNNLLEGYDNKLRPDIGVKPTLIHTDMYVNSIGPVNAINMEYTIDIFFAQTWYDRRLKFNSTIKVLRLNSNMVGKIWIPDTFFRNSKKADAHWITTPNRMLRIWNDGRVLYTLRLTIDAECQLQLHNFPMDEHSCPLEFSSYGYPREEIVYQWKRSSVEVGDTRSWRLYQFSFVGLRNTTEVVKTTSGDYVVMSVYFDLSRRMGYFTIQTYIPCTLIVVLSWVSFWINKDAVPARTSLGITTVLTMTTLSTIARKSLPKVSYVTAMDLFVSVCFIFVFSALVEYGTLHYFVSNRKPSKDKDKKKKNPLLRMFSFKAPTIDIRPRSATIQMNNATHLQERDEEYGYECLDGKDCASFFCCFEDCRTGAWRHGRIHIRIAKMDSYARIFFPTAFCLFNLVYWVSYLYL
Assay: Automated patch-clamp (QPatch) modulation of GABA-activated currents in cells stably transfected with GABAA (α3β2γ2) channels
Type: cell-based
Settings: stably transfected Ltk cells, 2.0 μM GABA (submaximal), whole-cell patch, holding potential −80 mV; Emax = upper asymptote of dose-response fit
Procedure: Modulatory effects of the compounds of this disclosure were investigated using cells stably transfected with GABA-activated channels of the GABAA (α3β2γ2) subtype together with submaximal GABA concentrations. Expression of GABA receptor were induced by adding Dexamethasone to the cells for 24 to 48 h before experimentation. In general, cells were passaged at a confluence of about 80 to 90%. […] Inward currents were measured upon application of 2.0 μM GABA to patch-clamped cells for 4 s. […]
PARAMETER MEASURED: Emax

Which measured Emax value corresponds to O=C(O)c1nn2c(c1Cl)CN=C(c1ccccc1F)c1cc(Cl)ccc1-2 [Example 22] ?
51 to 100%

Which measured Emax value corresponds to O=C(O)c1cc2n(n1)-c1ccc(C(F)(F)F)cc1C(c1ccccc1F)=NC2 [Example 10] ?
> 100%

Which measured Emax value corresponds to O=C(O)c1cc2n(n1)-c1ccc(Cl)cc1C(c1ccccc1Br)=NC2 [Example 13] ?
> 100%

Which measured Emax value corresponds to O=C(O)c1cc2n(n1)-c1ccc(-c3ccccc3)cc1C(c1ccccc1F)=NC2 [Example 6] ?
< 50%

Which measured Emax value corresponds to O=C(O)c1cc2n(n1)-c1ccc(OC(F)(F)F)cc1C(c1ccccc1F)=NC2 [Example 11] ?
> 100%

Which measured Emax value corresponds to Cc1ccc2c(c1)C(c1ccccc1F)=NCc1cc(C(=O)O)nn1-2 [Example 4] ?
> 100%

Which measured Emax value corresponds to NS(=O)(=O)NCCNC(=O)c1cnn2c1CN=C(c1ccccc1F)c1cc(Cl)ccc1-2 [Example 28] ?
> 100%

Which measured Emax value corresponds to O=C(O)c1cc2n(n1)-c1ccc(Cl)cc1C(c1ccccc1F)=[N+]([O-])C2 [Example 23] ?
> 100%

Numbers sourced from patent US12049467B2.
